Test system: MCF7
TEST METHOD NOTES: Antiproliferative activity against human MCF7 cells assessed as reduction in cell viability incubated for 72 hrs by SRB assay
Format: functional, cell-based
CONDITION DESCRIPTION: MCF7, 72 h
Reported IC50 by item:
MEASUREMENT NAME: IC50

[[record]]
structure_string = "C=C1C(=O)[C@]23[C@H](OC(=O)[C@@H](NC(=O)OC(C)(C)C)c4ccccc4)[C@H]1C[C@H](O)[C@H]2[C@]1(COC(C)=O)CCCC(C)(C)[C@H]1C[C@H]3OC"
measurement_name = "IC50"
readout_value = "1.58 µM"

[[record]]
structure_string = "C=C1C(=O)[C@]23[C@H](OC(=O)[C@H](C)N)[C@H]1C[C@H](O)[C@H]2[C@]1(COC(C)=O)CCCC(C)(C)[C@H]1C[C@H]3OC.O=C(O)C(F)(F)F"
measurement_name = "IC50"
readout_value = "7.37 µM"

[[record]]
structure_string = "C=C1C(=O)[C@]23[C@H](OC(=O)[C@@H](NC)C(C)C)[C@H]1C[C@H](O)[C@H]2[C@]1(COC(C)=O)CCCC(C)(C)[C@H]1C[C@H]3OC.O=C(O)C(F)(F)F"
measurement_name = "IC50"
readout_value = "3.2 µM"


====

TEST METHOD NOTES: Solubility of compound in water
Format: physicochemical
CONDITION DESCRIPTION: buffer
MEASUREMENT NAME: solubility

[[record]]
structure_string = "C=C1C(=O)[C@]23[C@H](OC(=O)CCCCCN)[C@H]1C[C@H](O)[C@H]2[C@]1(COC(C)=O)CCCC(C)(C)[C@H]1C[C@H]3OC.O=C(O)C(F)(F)F"
readout_value = "Soluble"

[[record]]
structure_string = "C=C1C(=O)[C@]23[C@H](OC(=O)[C@H](C)NC)[C@H]1C[C@H](O)[C@H]2[C@]1(COC(C)=O)CCCC(C)(C)[C@H]1C[C@H]3OC.O=C(O)C(F)(F)F"
readout_value = "Soluble"

[[record]]
structure_string = "C=C1C(=O)[C@]23[C@H](OC(=O)[C@@H](N)Cc4ccccc4)[C@H]1C[C@H](O)[C@H]2[C@]1(COC(C)=O)CCCC(C)(C)[C@H]1C[C@H]3OC.O=C(O)C(F)(F)F"
readout_value = "Soluble"

[[record]]
structure_string = "C=C1C(=O)[C@]23[C@H](OC(=O)[C@@H](NC(=O)OC(C)(C)C)C(C)C)[C@H]1C[C@H](O)[C@H]2[C@]1(COC(C)=O)CCCC(C)(C)[C@H]1C[C@H]3OC"
readout_value = "Insoluble"

[[record]]
structure_string = "C=C1C(=O)[C@]23[C@H](OC(=O)CCCCNC(=O)OC(C)(C)C)[C@H]1C[C@H](O)[C@H]2[C@]1(COC(C)=O)CCCC(C)(C)[C@H]1C[C@H]3OC"
readout_value = "Insoluble"

[[record]]
structure_string = "C=C1C(=O)[C@]23[C@H](OC(=O)[C@H]4CCCNC4)[C@H]1C[C@H](O)[C@H]2[C@]1(COC(C)=O)CCCC(C)(C)[C@H]1C[C@H]3OC.O=C(O)C(F)(F)F"
readout_value = "Soluble"

[[record]]
structure_string = "C=C1C(=O)[C@]23[C@H](OC(=O)[C@@H]4CCCCN4C(=O)OC(C)(C)C)[C@H]1C[C@H](O)[C@H]2[C@]1(COC(C)=O)CCCC(C)(C)[C@H]1C[C@H]3OC"
readout_value = "Insoluble"

[[record]]
structure_string = "C=C1C(=O)[C@@]23[C@H](O)C[C@@H]4C(C)(C)CCC[C@@]4(COC(C)=O)[C@@H]2[C@@H](O)C[C@@H]1[C@H]3O"
readout_value = "Insoluble"

[[record]]
structure_string = "C=C1C(=O)[C@]23[C@H](OC(=O)[C@@H]4CCCN4)[C@H]1C[C@H](O)[C@H]2[C@]1(COC(C)=O)CCCC(C)(C)[C@H]1C[C@H]3OC.O=C(O)C(F)(F)F"
readout_value = "Soluble"

[[record]]
structure_string = "C=C1C(=O)[C@]23[C@H](OC(=O)[C@@H](N)C(C)C)[C@H]1C[C@H](O)[C@H]2[C@]1(COC(C)=O)CCCC(C)(C)[C@H]1C[C@H]3OC.O=C(O)C(F)(F)F"
readout_value = "Soluble"

[[record]]
structure_string = "C=C1C(=O)[C@]23[C@H](OC(=O)[C@@H](N)c4ccccc4)[C@H]1C[C@H](O)[C@H]2[C@]1(COC(C)=O)CCCC(C)(C)[C@H]1C[C@H]3OC.O=C(O)C(F)(F)F"
readout_value = "Soluble"

[[record]]
structure_string = "C=C1C(=O)[C@]23[C@H](OC(=O)[C@H](C)N(C)C(=O)OC(C)(C)C)[C@H]1C[C@H](O)[C@H]2[C@]1(COC(C)=O)CCCC(C)(C)[C@H]1C[C@H]3OC"
readout_value = "Insoluble"

[[record]]
structure_string = "C=C1C(=O)[C@]23[C@H](OC(=O)[C@H](C)N)[C@H]1C[C@H](O)[C@H]2[C@]1(COC(C)=O)CCCC(C)(C)[C@H]1C[C@H]3OC.O=C(O)C(F)(F)F"
readout_value = "Soluble"

[[record]]
structure_string = "C=C1C(=O)[C@]23[C@H](OC(=O)[C@@H](N)CC)[C@H]1C[C@H](O)[C@H]2[C@]1(COC(C)=O)CCCC(C)(C)[C@H]1C[C@H]3OC.O=C(O)C(F)(F)F"
readout_value = "Soluble"

[[record]]
structure_string = "C=C1C(=O)[C@]23[C@H](OC(=O)CNC(=O)OC(C)(C)C)[C@H]1C[C@H](O)[C@H]2[C@]1(COC(C)=O)CCCC(C)(C)[C@H]1C[C@H]3OC"
readout_value = "Insoluble"

[[record]]
structure_string = "C=C1C(=O)[C@]23[C@H](OC(=O)[C@H](CCC)NC(=O)OC(C)(C)C)[C@H]1C[C@H](O)[C@H]2[C@]1(COC(C)=O)CCCC(C)(C)[C@H]1C[C@H]3OC"
readout_value = "Insoluble"

[[record]]
structure_string = "C=C1C(=O)[C@]23[C@H](OC(=O)[C@@H](NC)C(C)C)[C@H]1C[C@H](O)[C@H]2[C@]1(COC(C)=O)CCCC(C)(C)[C@H]1C[C@H]3OC.O=C(O)C(F)(F)F"
readout_value = "Soluble"

[[record]]
structure_string = "C=C1C(=O)[C@]23[C@H](OC(=O)[C@@H]4CCCN4C(=O)OC(C)(C)C)[C@H]1C[C@H](O)[C@H]2[C@]1(COC(C)=O)CCCC(C)(C)[C@H]1C[C@H]3OC"
readout_value = "Insoluble"

[[record]]
structure_string = "C=C1C(=O)[C@]23[C@H](OC(=O)[C@H](CCSC)NC(=O)OC(C)(C)C)[C@H]1C[C@H](O)[C@H]2[C@]1(COC(C)=O)CCCC(C)(C)[C@H]1C[C@H]3OC"
readout_value = "Insoluble"

[[record]]
structure_string = "C=C1C(=O)[C@]23[C@H](OC(=O)[C@@H](NC(=O)OC(C)(C)C)c4ccccc4)[C@H]1C[C@H](O)[C@H]2[C@]1(COC(C)=O)CCCC(C)(C)[C@H]1C[C@H]3OC"
readout_value = "Insoluble"

